Data credit: ChEMBL document CHEMBL1122888

System: HMG-CoA reductase (Rattus norvegicus)
Experiment: Evaluated for the percent suppression of elevated liver HMG-CoA reductase in Diazoesterol treated rats
Endpoint label: Suppression (%)
Number in %, nothing else.

Molecule	Measured target	Result units	Suppression
C[C@H](C(O)CCC(C)(C)F)C1CCC2C3CC=C4CC(O)CCC4(C)C3CCC21C (some centres undefined)	HMG-CoA reductase (Rattus norvegicus)	%	26
C[C@H](C(O)CCC(C)(C)Cl)C1CCC2C3CC=C4CC(O)CCC4(C)C3CCC21C (some centres undefined)	HMG-CoA reductase (Rattus norvegicus)	%	28
C[C@H](C(O)CCC1CC1)C1CCC2C3CC=C4CC(O)CCC4(C)C3CCC21C (some centres undefined)	HMG-CoA reductase (Rattus norvegicus)	%	30

Then there is this molecule:
So what does the record say about Suppression for C[C@H](C(O)CCC(C)(C)C)C1CCC2C3CC=C4CC(O)CCC4(C)C3CCC21C (some centres undefined) ?
39
